- MEASUREMENT TARGET: FAAH (Homo sapiens, UniProt O00519)
- Construct: purchased
- EXPERIMENTAL PROTOCOL: In vitro FAAH enzyme inhibition activity assay (FAAH assay kit, fluorescently labeled substrate)
- Assay type: biochemical
- CONDITION INFO: values given in μm [sic]
ASSAY READOUT: log10 of IC50 (log10 of the value in µM)

smiles_str=Cn1c(C(=O)N2CCC(C(=O)c3ccccn3)CC2)cc2cc(Cl)ccc21 assay_readout="log10 of IC50" number=1.13
smiles_str=Cn1c(C(=O)N2CCC(C(=O)c3ccncc3)CC2)cc2cc(Cl)ccc21 assay_readout="log10 of IC50" number=1.45
smiles_str=O=C(c1ccccn1)C1CCN(C(=O)c2cnc3ccccc3c2)CC1 assay_readout="log10 of IC50" number=2.10
smiles_str=O=C(c1ccccn1)C1CCN(Cc2cnc3ccccc3c2)CC1 assay_readout="log10 of IC50" number=2.12
smiles_str=O=C(c1ccccn1)C1CCN(C(=O)c2cc3ccccc3o2)CC1 assay_readout="log10 of IC50" number=1.00
smiles_str=Cn1c(C(=O)N2CCC(C(=O)c3nccs3)CC2)cc2cc(Cl)ccc21 assay_readout="log10 of IC50" number=0.01
smiles_str=Cn1c(C(=O)N2CCC(C(=O)c3ccncc3)CC2)cc2ccccc21 assay_readout="log10 of IC50" number=1.15

====

- MEASUREMENT TARGET: FAAH (Homo sapiens)
- Construct: purchased
- Sequence (O00519 1-579): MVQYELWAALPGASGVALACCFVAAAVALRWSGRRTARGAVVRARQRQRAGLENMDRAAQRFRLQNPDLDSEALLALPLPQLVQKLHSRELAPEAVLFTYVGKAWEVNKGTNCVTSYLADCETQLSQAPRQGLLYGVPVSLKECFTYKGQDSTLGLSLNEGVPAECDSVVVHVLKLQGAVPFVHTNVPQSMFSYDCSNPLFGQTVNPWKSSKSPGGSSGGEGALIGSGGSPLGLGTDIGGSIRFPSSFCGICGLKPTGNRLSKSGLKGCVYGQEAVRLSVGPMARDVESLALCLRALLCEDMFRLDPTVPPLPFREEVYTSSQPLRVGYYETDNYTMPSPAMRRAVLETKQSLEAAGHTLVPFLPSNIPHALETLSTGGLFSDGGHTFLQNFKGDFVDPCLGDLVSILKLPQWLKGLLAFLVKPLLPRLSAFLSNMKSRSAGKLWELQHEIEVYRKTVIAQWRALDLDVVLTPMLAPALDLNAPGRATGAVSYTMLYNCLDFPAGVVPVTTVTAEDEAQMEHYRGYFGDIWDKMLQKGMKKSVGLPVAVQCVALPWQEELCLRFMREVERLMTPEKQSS
- EXPERIMENTAL PROTOCOL: In vitro FAAH enzyme inhibition activity assay (FAAH assay kit, fluorescently labeled substrate)
- Assay type: biochemical
- CONDITION INFO: values in nm
ASSAY READOUT: IC50

compound="Cn1c(C(=O)N2CCC(C(=O)c3nc4ccccc4s3)CC2)cc2cc(Cl)ccc21 [Compound I-9]" assay_readout=IC50 result="279 nM"
compound="O=C(Oc1ccc([N+](=O)[O-])cc1)N1CCN(Cc2cccc(Oc3ccccc3)c2)CC1 [JZL-195, reference compound]" assay_readout=IC50 result="2.81 nM"
compound="Cn1c(C(=O)N2CCC(C(=O)c3nnc(-c4cccc(Cl)c4)o3)CC2)cc2cc(Cl)ccc21 [Compound I-13]" assay_readout=IC50 result="89.7 nM"
compound="Cn1c(C(=O)N2CCC(C(=O)c3nnc(-c4cccs4)o3)CC2)cc2cc(Cl)ccc21 [Compound I-16]" assay_readout=IC50 result="12.9 nM"
compound="Cn1c(C(=O)N2CCC(C(=O)c3ncco3)CC2)cc2cc(Cl)ccc21 [Compound I-7]" assay_readout=IC50 result="77.9 nM"
compound="Cn1c(C(=O)N2CCC(C(=O)c3ncc(-c4ccccc4)o3)CC2)cc2cc(Cl)ccc21 [Compound I-10]" assay_readout=IC50 result="112 nM"
compound="Cn1c(C(=O)N2CCC(C(=O)c3nnc(-c4ccco4)o3)CC2)cc2cc(Cl)ccc21 [Compound I-15]" assay_readout=IC50 result="3.11 nM"
